- target_or_system: HLA-A*03:01 (Homo sapiens, UniProt P04439)
- test: MHC binding assay (UV-ligand exchange, β2m ELISA)
- condition_label: binding to HLA-A*03:01, UV-ligand exchange, β2m ELISA
value_type: Peptide exchange (MHC class I binding score, peptide exchange yield)

substance: 253 (KLSLSHKK; listed as Homo sapiens) [compound 253]
readout_value: +++ (>50 = +++)
//
substance: 211 (VSLGTPIMK; listed as Homo sapiens) [compound 211]
readout_value: +++ (>50 = +++)
//
substance: 109 (KLQNLPTLLY; listed as Homo sapiens) [compound 109]
readout_value: +++ (>50 = +++)
//
substance: 15 (RLYAPVVNISRL; listed as Homo sapiens) [compound 15]
readout_value: +++ (>50 = +++)
//
substance: 76 (IINESLLFY; listed as Homo sapiens) [compound 76]
readout_value: +++ (>50 = +++)
//
substance: 33 (KLLEDMVEK; listed as Homo sapiens) [compound 33]
readout_value: ++ (>20% = ++)
//
substance: 36 (QIRAELMKK; listed as Homo sapiens) [compound 36]
readout_value: ++++ (>75% = ++++)
//
substance: 49 (ITAPLMPLGK; listed as Homo sapiens) [compound 49]
readout_value: ++++ (>75% = ++++)
//
substance: 117 (TVFVELWLK; listed as Homo sapiens) [compound 117]
readout_value: ++ (>20% = ++)

====

- target_or_system: HLA-A*03:01 (Homo sapiens)
- test: MHC binding assay (UV-ligand exchange, β2m ELISA)
- condition_label: binding to HLA-A*03:01, UV-ligand exchange, β2m ELISA
value_type: Peptide exchange (MHC class I binding score, peptide exchange yield)

substance: 129 (ALARVSSVKL; listed as Homo sapiens) [compound 129]
target_or_system: HLA-A*03:01 (Homo sapiens)
readout_value: +++ (>50 = +++)
--
substance: 150 (LLLAAVTVK; listed as Homo sapiens) [compound 150]
target_or_system: HLA-A*03:01 (Homo sapiens)
readout_value: ++ (>20% = ++)
--
substance: 92 (KRIPFRPLAK; listed as Homo sapiens) [compound 92]
target_or_system: HLA-A*03:01 (Homo sapiens)
readout_value: ++ (>20% = ++)
--
substance: 154 (TIASVLVAR; listed as Homo sapiens) [compound 154]
target_or_system: HLA-A*03:01 (Homo sapiens)
readout_value: ++ (>20% = ++)
--
substance: 158 (RALGVPFVPR; listed as Homo sapiens) [compound 158]
target_or_system: HLA-A*03:01 (Homo sapiens)
readout_value: ++++ (>75% = ++++)
--
substance: 1 (RVYPHKTLY; listed as Homo sapiens) [compound 1]
target_or_system: HLA-A*03:01 (Homo sapiens)
readout_value: +++ (>50 = +++)
--
substance: 190 (RSKWSNVFK; listed as Homo sapiens) [compound 190]
target_or_system: HLA-A*03:01 (Homo sapiens)
readout_value: ++++ (>75% = ++++)
--
substance: 164 (RLAQYTIER; listed as Homo sapiens) [compound 164]
target_or_system: HLA-A*03:01 (Homo sapiens)
readout_value: ++++ (>75% = ++++)
--
substance: 191 (SLYNLGGAK; listed as Homo sapiens) [compound 191]
target_or_system: HLA-A*03:01 (Homo sapiens)
readout_value: ++++ (>75% = ++++)

====

- target_or_system: HLA-A*03:01 (Homo sapiens)
- test: MHC binding assay (UV-ligand exchange, β2m ELISA)
- condition_label: binding to HLA-A*03:01, UV-ligand exchange, β2m ELISA
value_type: Peptide exchange (MHC class I binding score, peptide exchange yield)

substance: 168 (ATNGKVLKK; listed as Homo sapiens) [compound 168]
readout_value: ++++ (>75% = ++++)
//
substance: 176 (RLYDAYVNR; listed as Homo sapiens) [compound 176]
readout_value: ++++ (>75% = ++++)
//
substance: 149 (TVFLSKYLKK; listed as Homo sapiens) [compound 149]
readout_value: +++ (>50 = +++)
//
substance: 210 (KIFQGQINK; listed as Homo sapiens) [compound 210]
readout_value: ++++ (>75% = ++++)
//
substance: 86 (RVSGSGGGGAGK; listed as Homo sapiens) [compound 86]
readout_value: +++ (>50 = +++)
//
substance: 18 (RLYYSFKNITK; listed as Homo sapiens) [compound 18]
readout_value: ++++ (>75% = ++++)
//
substance: 47 (ALFGNALVFY; listed as Homo sapiens) [compound 47]
readout_value: ++++ (>75% = ++++)
//
substance: 52 (GMYEYGSIEK; listed as Homo sapiens) [compound 52]
readout_value: ++++ (>75% = ++++)

====

- target_or_system: HLA-A*03:01 (Homo sapiens, UniProt P04439)
- test: MHC binding assay (UV-ligand exchange, β2m ELISA)
- condition_label: binding to HLA-A*03:01, UV-ligand exchange, β2m ELISA
value_type: Peptide exchange (MHC class I binding score, peptide exchange yield)

substance: 31 (HAFFPKTHR; listed as Homo sapiens) [compound 31]
readout_value: ++++ (>75% = ++++)
//
substance: 171 (ATIGLSVSK; listed as Homo sapiens) [compound 171]
readout_value: ++++ (>75% = ++++)
//
substance: 100 (TTNARILAR; listed as Homo sapiens) [compound 100]
readout_value: +++ (>50 = +++)
//
substance: 192 (RSYSHVVLK; listed as Homo sapiens) [compound 192]
readout_value: ++++ (>75% = ++++)
//
substance: 226 (RVWLGKHYK; listed as Homo sapiens) [compound 226]
readout_value: ++++ (>75% = ++++)
//
substance: 71 (VLYELGIIGNNK; listed as Homo sapiens) [compound 71]
readout_value: +++ (>50 = +++)
//
substance: 40 (ALNDRFAGY; listed as Homo sapiens) [compound 40]
readout_value: +++ (>50 = +++)
//
substance: 134 (SLLKPSGDYFK; listed as Homo sapiens) [compound 134]
readout_value: +++ (>50 = +++)
//
substance: 148 (RIGNKGIYK; listed as Homo sapiens) [compound 148]
readout_value: +++ (>50 = +++)
//
substance: 225 (RVYPRPPSKTY; listed as Homo sapiens) [compound 225]
readout_value: ++++ (>75% = ++++)
//
substance: 110 (IIFIPATILLK; listed as Homo sapiens) [compound 110]
readout_value: ++++ (>75% = ++++)
//
substance: 65 (RTIEELQNK; listed as Homo sapiens) [compound 65]
readout_value: +++ (>50 = +++)
//
substance: 183 (KVYIPPIINK; listed as Homo sapiens) [compound 183]
readout_value: ++++ (>75% = ++++)

Just for reference, patent US11872270B2 is where these values come from.
